- assayed_system: MNK2a (Homo sapiens (Human))
- procedure_text: MNK2a in vitro kinase assay (Assay 2), ADP-Glo
- Assay type: biochemical
- experimental_parameters: assay 2; read-out: MNK2 IC50
attribute_measured: IC50 (nM)
Answer format: numeric, nM implied, no suffix.

As a guide, the following entries are already answered.
Cc1cc(N=S(C)(C)=O)cc2ncnc(Nc3ccc(F)cc3O[C@H]3COC[C@H]3OC3COC3)c12 (racemic) [Example 7.3] : 7
O=S1(=Nc2cc(Cl)c3c(Nc4ccc(F)cc4O[C@@H]4COC[C@H]4O)ncnc3c2)CCC1 [Example 1.22] : 1
Cc1cc(N=S2(=O)CCCC2)cc2ncnc(Nc3ccc(F)cc3O[C@H]3COC[C@H]3OCCF)c12 (racemic) [Example 10.1] : 1
Cc1cc(N=S2(=O)CCCC2)cc2ncnc(Nc3ccc(F)cc3O[C@H]3CN(S(C)(=O)=O)C[C@@H]3O)c12 [Example 2.60] : 3
Cc1cc(N=S2(=O)CCC2)cc2ncnc(Nc3ccc(Cl)nc3O[C@H]3COC[C@@H]3O)c12 [Example 2.43] : 3

What value of IC50 has been reported for the following compound? COc1cc(N=S(C)(=O)C2CC2)cc2ncnc(Nc3ccc(F)cc3O[C@H]3COC[C@H]3O)c12 (mixture of isomers) [Example 9.17]
33

And then O=S1(=Nc2cc(F)c3c(Nc4ccc(Cl)nc4O[C@H]4COC[C@@H]4O)ncnc3c2)CCC1 [Example 1.24] , what is it?
3

###

- assayed_system: MNK1a (Homo sapiens (Human), UniProt Q9BUB5)
- Sequence (Q9BUB5 other isoform, or with tags, fused parts or gaps): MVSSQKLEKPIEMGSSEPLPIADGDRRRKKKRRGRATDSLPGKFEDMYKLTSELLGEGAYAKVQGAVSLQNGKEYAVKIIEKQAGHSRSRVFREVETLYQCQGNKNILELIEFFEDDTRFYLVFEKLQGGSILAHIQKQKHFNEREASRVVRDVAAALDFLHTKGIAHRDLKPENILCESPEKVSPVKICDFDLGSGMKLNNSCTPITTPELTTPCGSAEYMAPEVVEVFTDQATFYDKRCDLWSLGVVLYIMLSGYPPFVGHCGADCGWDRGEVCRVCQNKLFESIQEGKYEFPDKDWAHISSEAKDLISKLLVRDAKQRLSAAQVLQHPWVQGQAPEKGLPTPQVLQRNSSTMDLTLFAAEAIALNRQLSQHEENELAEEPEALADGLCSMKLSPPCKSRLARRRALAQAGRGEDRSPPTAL
- procedure_text: MNK1 in vitro kinase assay (Assay 3), Z'-LYTE
- Type: biochemical
- experimental_parameters: compound concentration of 1 μM, read-out: MNK1 % INH
Label criterion met when inhibition at 1 µM >= 90%; otherwise criterion not met.

CO[C@@H]1COC[C@H]1Oc1ncccc1Nc1ncnc2cc(N=S3(=O)CCC3)cc(C)c12 (racemic) [Example 2.35] : criterion met
CO[C@@H]1CN(CC(F)F)C[C@H]1Oc1ncccc1Nc1ncnc2cc(N=S(C)(C)=O)cc(C)c12 [Example 5.2] : criterion not met
CO[C@@H]1CN(C)C[C@H]1Oc1ncccc1Nc1ncnc2cc(N=S3(=O)CCCC3)cc(C)c12 [Example 11.3] : criterion not met
CO[C@@H]1COC[C@@H]1Oc1cc(F)ccc1Nc1ncnc2cc(N=S(C)(C)=O)cc(Cl)c12 (racemic) [Example 1.4] : criterion met
Cc1cc(N=S2(=O)CCCC2)cc2ncnc(Nc3ccc(F)cc3O[C@@H]3COC[C@@H]3OCc3ccccc3)c12 [Example 13.3] : criterion not met

Given the entry Cc1cc(N=S2(=O)CCC2)cc2ncnc(Nc3ccc(Cl)nc3O[C@H]3COC[C@@H]3O)c12 [Example 2.43] , answer whether its inhibition at 1 µM meets or surpasses 90%.
criterion met

And then CC[S@@](C)(=O)=Nc1cc(C)c2c(Nc3ccc(F)cc3O[C@H]3COC[C@@H]3O)ncnc2c1 (single isomer, unassigned) [Example 14.12] , what is it?
criterion not met

###

- assayed_system: MNK2a (Homo sapiens (Human))
- procedure_text: MNK2a in vitro kinase assay (Assay 2), ADP-Glo
- Assay type: biochemical
- experimental_parameters: assay 2; read-out: MNK2 IC50
pIC50: −log10 of the molar value.
Label condition met when pIC50 >= 8; otherwise condition not met.

Past entries and their recorded results:
Cc1cc(N=S(C)(C)=O)cc2ncnc(Nc3ccc(F)cc3O[C@@H]3CNC[C@H]3O)c12 : condition not met
COc1cc(N=S2(=O)CCCC2)cc2ncnc(Nc3ccc(Cl)nc3O[C@H]3COC[C@@H]3O)c12 : condition met
CS(C)(=O)=Nc1cc(Br)c2c(Nc3ccc(F)cc3O[C@H]3COC[C@@H]3O)ncnc2c1 : condition met
COc1cc(N=S(C)(=O)c2ccccc2)cc2ncnc(Nc3ccc(F)cc3O[C@H]3COC[C@H]3O)c12 (mixture of isomers) : condition not met
CS(C)(=O)=Nc1cc(Cl)c2c(Nc3ccc(F)cc3O[C@H]3COC[C@H]3O)ncnc2c1 (racemic) : condition met
O=S1(=Nc2cc(Cl)c3c(Nc4ccc(F)cc4O[C@@H]4COC[C@H]4O)ncnc3c2)CCCC1 : condition met
Cc1cc(N=S2(=O)CCC2)cc2ncnc(Nc3ccc(Cl)cc3O[C@@H]3COC[C@H]3O)c12 : condition met
CC(=O)N1C[C@@H](O)[C@H](Oc2ncccc2Nc2ncnc3cc(N=S(C)(C)=O)cc(C)c23)C1 : condition not met
Cc1cc(N=S(C)(C)=O)cc2ncnc(Nc3cccnc3O[C@@H]3CN(C)C[C@H]3O)c12 : condition not met
Cc1cc(N=S2(=O)CCCC2)cc2ncnc(Nc3ccc(F)cc3O[C@H]3COC[C@H]3O)c12 (racemic) [Example 2.8] : condition met

Given the entry Cc1cc(N=S2(=O)CCC2)cc2ncnc(Nc3ccc(Cl)nc3O[C@@H]3COC[C@H]3O)c12 , answer whether its pIC50 meets or surpasses 8.
condition met

And then COc1cc(N=S(C)(C)=O)cc2ncnc(Nc3ccc(F)cc3O[C@H]3COC[C@H]3O)c12 (racemic) , what is it?
condition not met

###

- assayed_system: MNK2a (Homo sapiens (Human), UniProt Q9HBH9)
- Sequence (Q9HBH9 whole entry): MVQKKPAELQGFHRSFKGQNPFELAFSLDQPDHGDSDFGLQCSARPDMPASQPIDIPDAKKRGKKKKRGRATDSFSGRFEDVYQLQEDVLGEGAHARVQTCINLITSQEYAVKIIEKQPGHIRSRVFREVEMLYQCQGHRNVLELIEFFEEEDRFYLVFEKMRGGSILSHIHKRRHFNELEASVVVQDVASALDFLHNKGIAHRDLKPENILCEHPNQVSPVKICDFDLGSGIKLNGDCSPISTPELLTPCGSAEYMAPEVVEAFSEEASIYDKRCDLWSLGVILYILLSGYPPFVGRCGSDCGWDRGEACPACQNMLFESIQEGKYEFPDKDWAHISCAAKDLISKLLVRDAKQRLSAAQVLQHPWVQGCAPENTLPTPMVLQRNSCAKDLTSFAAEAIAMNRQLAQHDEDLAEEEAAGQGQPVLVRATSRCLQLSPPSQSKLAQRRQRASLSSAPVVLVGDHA
- procedure_text: MNK2a in vitro kinase assay (Assay 2), ADP-Glo
- Format: biochemical
- experimental_parameters: assay 2; read-out: MNK2 IC50
attribute_measured: pIC50
// pIC50 is dimensionless: -log10 of concentration (M)

CC(C)S(C)(=O)=Nc1cc(F)c2c(Nc3ccc(F)cc3O[C@@H]3COC[C@@H]3O)ncnc2c1 (mixture of isomers) [Example 2.90] : 7.15

Continue with the next compound.
What value of pIC50 has been reported for the following compound? Cc1cc(N=S(C)(=O)c2ccccc2)cc2ncnc(Nc3ccc(F)cc3O[C@H]3COC[C@@H]3O)c12 (some centres unmarked) [Example 2.75]
8.10

###

- assayed_system: MNK2a (Homo sapiens (Human), UniProt Q9HBH9)
- procedure_text: MNK2a in vitro kinase assay (Assay 2), ADP-Glo
- Format: biochemical
- experimental_parameters: assay 2; read-out: MNK2 IC50
attribute_measured: IC50 (nM)
Answer format: numeric, nM implied, no suffix.

As a guide, the following entries are already answered.
Cc1cc(N=S(C)(C)=O)cc2ncnc(Nc3ccc(Cl)cc3O[C@@H]3COC[C@H]3O)c12 [Example 1.31] : 6
Cc1cc(N=S2(=O)CCC2)cc2ncnc(Nc3ccc(Cl)cc3O[C@H]3COC[C@@H]3O)c12 [Example 1.29] : 2
COc1cc(N=S(C)(=O)c2cccnc2)cc2ncnc(Nc3ccc(F)cc3O[C@H]3COC[C@H]3O)c12 (mixture of isomers) [Example 9.12] : 27
CC(=O)N1C[C@@H](O)[C@H](Oc2cc(F)ccc2Nc2ncnc3cc(N=S(C)(C)=O)cc(C)c23)C1 [Example 2.102] : 31

What value of IC50 has been reported for the following compound? COc1cc(N=S2(=O)CCC2)cc2ncnc(Nc3ccc(F)cc3O[C@H]3COC[C@H]3O)c12 (racemic) [Example 9.16]
7

And then COc1cc(N=S(C)(=O)C(C)C)cc2ncnc(Nc3ccc(F)cc3O[C@H]3COC[C@@H]3O)c12 (stereo partly shown) [Example 9.9] , what is it?
7

And then COc1cc(N=S(C)(=O)c2cccnc2)cc2ncnc(Nc3ccc(F)cc3O[C@H]3COC[C@@H]3O)c12 (stereo partly shown) [Example 9.14] , what is it?
13

###

- assayed_system: MNK1a (Homo sapiens (Human))
IC50 vs 300 nM: less than gives 1; not less than gives 0.

COc1cc(N=S(C)(=O)C(C)(C)C)cc2ncnc(Nc3ccc(F)cc3O[C@H]3COC[C@H]3O)c12 (mixture of isomers) [Example 9.19] : 0
Cc1cc(N=S(C)(C)=O)cc2ncnc(Nc3ccc(F)cc3O[C@H]3COC[C@H]3C#N)c12 [Example 1.2] : 0
O=S1(=Nc2cc(Cl)c3c(Nc4ccc(F)cc4O[C@H]4COC[C@@H]4O)ncnc3c2)CCC1 [Example 1.7] : 1
CO[C@@H]1CN(S(C)(=O)=O)C[C@H]1Oc1ncccc1Nc1ncnc2cc(N=S(C)(C)=O)cc(C)c12 [Example 6.6] : 0
Cc1cc(N=S2(=O)CCC2)cc2ncnc(Nc3ccc(F)cc3O[C@H]3COC[C@@H]3O)c12 [Example 2.36] : 1
CO[C@@H]1CN(CC(F)F)C[C@H]1Oc1cc(F)ccc1Nc1ncnc2cc(N=S3(=O)CCCC3)cc(C)c12 [Example 5.1] : 0

Is IC50 strictly under 300 nM for the entry Cc1cc(N=S(C)(C)=O)cc2ncnc(Nc3ccc(F)cc3O[C@H]3COC[C@@H]3O)c12 [Example 2.45] ?
1

And then Cc1cc(N=S(C)(=O)c2ccccc2)cc2ncnc(Nc3ccc(F)cc3O[C@H]3COC[C@@H]3O)c12 (stereo partly drawn) [Example 2.75] , what is it?
1

And then Cc1cc(N=S2(=O)CCCC2)cc2ncnc(Nc3ccc(Cl)nc3O[C@H]3COC[C@@H]3O)c12 [Example 2.42] , what is it?
1
